Experiment: MRP1 drug-resistance reversers in H69AR cells – cell-based, doxorubicin co-treatment, pilot screen (AID 601)
Conditions: H69AR cells, CellTiter-Glo, 72 h; compound alone cytotoxicity; at 10 µM
Metric name: viability (%)
Write the number in % without appending the unit.

Observe how each entry below is paired with its result.
O=C(Nc1cccnc1)Nc1ccccn1
96.9
O=C(c1ccc2c(c1)OCCO2)N1CCCCC1
101
Cc1ccc(N(C(=O)C2CCC(=O)N2)C2(C(=O)NC3CCCCC3)CCCCC2)cc1 (stereo not drawn)
98.4
CC(C)c1nccn1S(=O)(=O)c1cc(Cl)ccc1Cl
90.3

Form field viability, entry Cc1nc2ccc(S(=O)(=O)NC(C(=O)Nc3nccs3)C(C)C)cc2s1 (stereo not drawn) : 95.7

---

Assay: RAM signaling pathway blockade in yeast – S. cerevisiae, Pdr1DBD-CYC8 efflux-inhibited sensitized strain, primary screen (AID 1298);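 also: 0% = DMSO untreated cells without growth and 100% = 10 µM 1-NA-PP1 full growth; higher means more yeast growth rescued from 5-FOA killing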
Details: S. cerevisiae cbk1-as DSE1-URA3 strain, 5-FOA growth OD615, 2 d; at 50 µM; stronger effect = higher value
The source made the active and inactive calls.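 How the source made its calls: active means RAM network inhibition above 8.4% in each of two replicates, 3 SD over the compound average; inconclusive means above 8.4% inhibition in only one replicate; inactive means 8.4% inhibition or less in each replicate.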
Metric name: RAM network inhibition

CNC(=O)c1ccsc1NC(=O)c1ccccc1
-1.39% (inactive)
COc1cc(C2c3c(oc4ccccc4c3=O)C(=O)N2c2ccc(C)cn2)ccc1O (stereo unspecified)
4.26% (inactive)
Fc1ccc(-c2nnc(-c3ccc(Cl)cc3Cl)o2)cc1
3.99% (inactive)
COc1cc(/C=N/n2cnnc2)ccc1OCC(=O)N1CCOCC1
6.03% (inactive)

Form field RAM network inhibition, entry COC(=O)CSc1nc2nc(C)cc(C)n2n1 : 2.93% (inactive)

Form field RAM network inhibition, entry CCOc1ccc(Cn2nnc(C(=O)NCc3ccc(OC)cc3)c2N)cc1 : 4.7% (inactive)

Form field RAM network inhibition, entry C=C(C)c1cccc(C(C)(C)NC(=O)NCC2CCCO2)c1 (stereo unspecified) : 1.07% (inactive)

---

Recorded inhibition by entry
Assay: RAM pathway blockade in budding yeast – dse1pr::URA3 reporter, 5-FOA selection, pilot screen (AID 869);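 also: 0% = DMSO wells with no growth and 100% = 10 µM 1-NA-PP1 with full growth; RAM network block rescues cells from 5-FOA so hits raise OD615 growth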
Settings: S. cerevisiae dse1pr::URA3 5-FOA growth, OD615, 2 d; at 10 µM; stronger effect = higher value; strain carries analog-sensitive mutant Cbk1 kinase
Write the number in % without appending the unit.

Cc1c(C)n(C(=O)CSc2nncn2C)c2ccccc12
0.94
CCOC(=O)CCc1c(C)nc2cc(-c3ccc(F)cc3)[nH]n2c1=O
1.8
CC(C)(C)NC(=O)Cn1c(=O)oc2ccc(Cl)cc21
0.38
Cn1ccnc1C(O)c1ccco1 (stereo unspecified)
0.74
O=C1Nc2ccccc2C(O)(C(=O)NC2CC2)N1c1ccc(Cl)c(Cl)c1 (stereo unspecified)
1.22

Form field inhibition, entry Cc1ccc(C)c(NC(=O)CS(=O)(=O)c2cn(C)c3ccccc23)c1 : 0.025

Form field inhibition, entry COc1cc2c(cc1OC)-c1nnc(-c3cccs3)n1C(C)(C)C2 : 0.115

Form field inhibition, entry Cc1ccccc1NC(=O)C1CCCN(S(=O)(=O)c2cnc[nH]2)C1 (stereo unspecified) : 2.71

Form field inhibition, entry CCOC(=O)c1ccc(NCc2nc3ccccc3[nH]2)cc1 : 1.83

Form field inhibition, entry COc1cccc(C2C(C(=O)c3ccc(C)o3)=C(O)C(=O)N2CCCN(C)C)c1 (stereo unspecified) : -0.125

Form field inhibition, entry CC1CCc2nn(CC(=O)NCc3ccc4c(c3)OCO4)cc2C1 (stereo unspecified) : -0.525

meta.source: PubChem BioAssay
